# credit: patent US20220177604A1

# measured-on: T1, human immunoglobulin E (hIgE) (human, UniProt P01854-1 1-428)
# T1 construct: also called human IgE; Native IgE (Abcam)
# test-description: SPR (Biacore), pH 7.4
metric: pKd
Answers are plain numbers, as −log10 of the molar value.

OmaVH15G55H - VL3 (antibody, V domains shown) VH: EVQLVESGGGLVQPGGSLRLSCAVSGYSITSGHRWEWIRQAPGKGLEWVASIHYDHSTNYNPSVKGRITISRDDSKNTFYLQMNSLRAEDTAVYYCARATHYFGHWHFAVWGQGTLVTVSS VL: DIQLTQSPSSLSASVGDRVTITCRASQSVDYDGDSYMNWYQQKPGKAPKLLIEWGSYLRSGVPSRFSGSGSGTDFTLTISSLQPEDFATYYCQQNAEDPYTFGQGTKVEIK :: 9.49
Oma VH15W100b - VL3D28HS31H (antibody, V domains shown) VH: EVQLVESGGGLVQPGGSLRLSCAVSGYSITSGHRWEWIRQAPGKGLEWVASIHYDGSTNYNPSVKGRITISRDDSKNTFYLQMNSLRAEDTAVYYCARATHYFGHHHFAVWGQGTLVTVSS VL: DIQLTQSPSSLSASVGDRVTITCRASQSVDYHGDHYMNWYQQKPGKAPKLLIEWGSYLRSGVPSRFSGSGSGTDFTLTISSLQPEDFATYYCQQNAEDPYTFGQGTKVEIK :: 8.06
OmaVH15G55H - VL3D28H (antibody, V domains shown, also called OmaVH15G55H VL3D25H) VH: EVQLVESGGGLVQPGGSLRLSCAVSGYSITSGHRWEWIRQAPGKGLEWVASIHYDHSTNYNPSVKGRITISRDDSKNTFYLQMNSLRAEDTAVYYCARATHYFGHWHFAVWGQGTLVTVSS VL: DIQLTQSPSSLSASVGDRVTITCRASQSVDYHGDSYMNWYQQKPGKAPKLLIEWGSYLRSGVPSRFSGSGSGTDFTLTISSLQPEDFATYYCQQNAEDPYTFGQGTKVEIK :: 9.14

Lab note: next binder to report on.
Fill in the blank: the reported pKd of OMA VH15 - VL3D28H (antibody, V domains shown, also called OMA VH15 VL3D25H) VH: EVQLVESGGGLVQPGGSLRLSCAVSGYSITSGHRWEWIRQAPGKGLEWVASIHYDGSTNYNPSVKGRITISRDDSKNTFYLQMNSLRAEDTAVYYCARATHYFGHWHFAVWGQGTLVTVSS VL: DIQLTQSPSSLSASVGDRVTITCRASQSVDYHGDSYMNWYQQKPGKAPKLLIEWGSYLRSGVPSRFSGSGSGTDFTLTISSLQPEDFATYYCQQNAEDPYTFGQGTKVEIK is ____.
9.78
